- condition_description: in ethanol, 313.15 K

{"molecule": "OC(CN1CCN(CC(O)(Cn2cncn2)c2ccc(F)cc2F)CC1)(Cn1cncn1)c1ccc(F)cc1F (stereo unspecified)", "solubility (mole fraction)": 0.000548}

---

- condition_description: in n-octanol, 313.15 K
measurement_label: solubility (mole fraction)

{"compound": "OC(CN1CCN(CC(O)(Cn2cncn2)c2ccc(F)cc2F)CC1)(Cn1cncn1)c1ccc(F)cc1F (stereo unspecified)", "measurement_label": "solubility (mole fraction)", "readout_value": 0.00016}

---

- condition_description: in n-hexane, 298.15 K
measurement_label: solubility (mole fraction)

{"compound": "OC(CN1CCN(CC(O)(Cn2cncn2)c2ccc(F)cc2F)CC1)(Cn1cncn1)c1ccc(F)cc1F (stereo unspecified)", "readout_value": "1.17e-06"}
